STUDY_SYSTEM: granzyme B (Human lymphocytes) (Homo sapiens)
Construct: Matrigel Mouse Model of Active and Pro-Form Granzyme B; purchased Enzo Life Sciences; host or cells: human lymphocytes
Sequence (P10144 21-247): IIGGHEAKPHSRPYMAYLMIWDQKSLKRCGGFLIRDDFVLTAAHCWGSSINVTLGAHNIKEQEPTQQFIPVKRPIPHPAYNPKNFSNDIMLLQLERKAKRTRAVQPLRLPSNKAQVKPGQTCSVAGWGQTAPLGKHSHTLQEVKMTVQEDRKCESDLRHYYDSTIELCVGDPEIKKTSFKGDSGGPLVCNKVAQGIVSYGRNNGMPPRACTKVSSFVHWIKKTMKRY
PROTOCOL_SUMMARY: In vivo PET/CT imaging of ^18F-granzyme B tracers in a Matrigel mouse model of active and pro-form granzyme B
PROTOCOL_CONDITIONS: female nude athymic mice with granzyme B/Matrigel implants, iv ^18F-radiotracer, PET 75-minutes post-injection
Numbered stars: 1 amine (or outer) side, 2 acyl side, 3 side chain; on linkers, the order of the positions; unused ones are H or OH. Square brackets hold non-standard residues; d marks the D form. Peptide text beside a SMILES is read from it. * marks the point of attachment. X2 = O=C1CN2CCN(CCN(CC3CCN(CC(=O)*)CC3)CC2)CC(=O)[O][Al]([F])[O]1; NOTA(AlF) = O=C1CN2CCN(CCN(CC(=O)*)CC2)CC(=O)[O][Al]([F])[O]1; Haic = O=C1[C@@H](N[*:1])CCc2cccc3c2N1[C@H](C(=O)[*:2])C3; NH(5-HO-2-oxo-oxolan-4-yl) = O=C1CC(N*)C(O)O1; X1 = O=C(CN1CCN([*:1])CC1)[*:2]
REPORTED_METRIC: in vivo imaging activity

Example cases with answers are listed next.
COMPOUND	STUDY_SYSTEM	in vivo imaging activity
CC[C@H](C)[C@H](NC(=O)CNC(=O)CNC(=O)[C@H](CCC(=O)O)NC(=O)CN1CCN(C(=O)CN2CCN3CCN(CC2)CC(=O)[O][Al]([F])[O]C(=O)C3)CC1)C(=O)N[C@H]1CCc2cccc3c2N(C1=O)[C@H](C(=O)NC1CC(=O)OC1O)C3 (some centres unmarked) [18F-8-Al] ({NOTA(AlF)}-[X1]EGGI[Haic]-{NH(5-HO-2-oxo-oxolan-4-yl)})	granzyme B (Human lymphocytes) (Homo sapiens)	good imaging activity
CC[C@H](C)[C@H](NC(=O)CCNC(=O)CCNC(=O)[C@@H](CCC(=O)O)NC(=O)CN1CCN(C(=O)CN2CCN3CCN(CC2)CC(=O)[O][Al]([F])[O]C(=O)C3)CC1)C(=O)N[C@H]1CCc2cccc3c2N(C1=O)[C@H](C(=O)NC1CC(=O)OC1O)C3 (some centres unmarked) [Compound ^18F-12-Al]	granzyme B (Human lymphocytes) (Homo sapiens)	good imaging activity
CC[C@H](C)[C@H](NC(=O)CCNC(=O)CCNC(=O)[C@@H](CCC(=O)O)NC(=O)CN1CCC(CN2CCN3CCN(CC2)CC(=O)[O][Al]([F])[O]C(=O)C3)CC1)C(=O)N[C@H]1CCc2cccc3c2N(C1=O)[C@H](C(=O)NC1CC(=O)OC1O)C3 (some centres unmarked) [Compound ^18F-1-Al]	granzyme B (Human lymphocytes) (Homo sapiens)	good imaging activity
CC[C@H](C)[C@H](NC(=O)COCCNC(=O)[C@@H](CCC(=O)O)NC(=O)[C@@H](CCC(=O)O)NC(=O)CN1CCC(CN2CCN3CCN(CC2)CC(=O)[O][Al]([F])[O]C(=O)C3)CC1)C(=O)N[C@H]1CCc2cccc3c2N(C1=O)[C@H](C(=O)NC1CC(=O)OC1O)C3 (some centres unmarked) [Compound ^18F-4-Al]	granzyme B (Human lymphocytes) (Homo sapiens)	good imaging activity
CC[C@H](C)[C@H](NC(=O)CNC(=O)CNC(=O)[C@H](CCC(=O)O)NC(=O)CN1CCC(CN2CCN3CCN(CC2)CC(=O)[O][Al]([F])[O]C(=O)C3)CC1)C(=O)N[C@H]1CCc2cccc3c2N(C1=O)[C@H](C(=O)NC1CC(=O)OC1O)C3 (some centres unmarked) [18F-2-Al] (X2-EGGI[Haic]-{NH(5-HO-2-oxo-oxolan-4-yl)})	granzyme B (Human lymphocytes) (Homo sapiens)	good imaging activity

Could you tell me in vivo imaging activity for each of these compounds? They are listed below.
1. CC[C@H](C)[C@H](NC(=O)CCNC(=O)CN(CC(=O)O)C(=O)CCNC(=O)CN1CCC(CN2CCN3CCN(CC2)CC(=O)[O][Al]([F])[O]C(=O)C3)CC1)C(=O)N[C@H]1CCc2cccc3c2N(C1=O)[C@H](C(=O)NC1CC(=O)OC1O)C3 (some centres unmarked) [Compound ^18F-3-Al]
2. CC[C@H](C)[C@H](NC(=O)CCNC(=O)CCNC(=O)CN(CC(=O)O)C(=O)CN1CCN(C(=O)CN2CCN3CCN(CC2)CC(=O)[O][Al]([F])[O]C(=O)C3)CC1)C(=O)N[C@H]1CCc2cccc3c2N(C1=O)[C@H](C(=O)NC1CC(=O)OC1O)C3 (some centres unmarked) [Compound ^18F-13-Al]
3. CC[C@H](C)[C@H](NC(=O)COCCNC(=O)[C@@H](CCC(=O)O)NC(=O)[C@@H](CCC(=O)O)NC(=O)CN1CCN(C(=O)CN2CCN3CCN(CC2)CC(=O)[O][Al]([F])[O]C(=O)C3)CC1)C(=O)N[C@H]1CCc2cccc3c2N(C1=O)[C@H](C(=O)NC1CC(=O)OC1O)C3 (some centres unmarked) [Compound ^18F-10-Al]

### Response
["good imaging activity", "good imaging activity", "good imaging activity"]
